- target: Multidrug efflux pump subunit AcrB (Escherichia coli (strain K12)) (UniProt P31224)
- Sequence (P31224 whole entry): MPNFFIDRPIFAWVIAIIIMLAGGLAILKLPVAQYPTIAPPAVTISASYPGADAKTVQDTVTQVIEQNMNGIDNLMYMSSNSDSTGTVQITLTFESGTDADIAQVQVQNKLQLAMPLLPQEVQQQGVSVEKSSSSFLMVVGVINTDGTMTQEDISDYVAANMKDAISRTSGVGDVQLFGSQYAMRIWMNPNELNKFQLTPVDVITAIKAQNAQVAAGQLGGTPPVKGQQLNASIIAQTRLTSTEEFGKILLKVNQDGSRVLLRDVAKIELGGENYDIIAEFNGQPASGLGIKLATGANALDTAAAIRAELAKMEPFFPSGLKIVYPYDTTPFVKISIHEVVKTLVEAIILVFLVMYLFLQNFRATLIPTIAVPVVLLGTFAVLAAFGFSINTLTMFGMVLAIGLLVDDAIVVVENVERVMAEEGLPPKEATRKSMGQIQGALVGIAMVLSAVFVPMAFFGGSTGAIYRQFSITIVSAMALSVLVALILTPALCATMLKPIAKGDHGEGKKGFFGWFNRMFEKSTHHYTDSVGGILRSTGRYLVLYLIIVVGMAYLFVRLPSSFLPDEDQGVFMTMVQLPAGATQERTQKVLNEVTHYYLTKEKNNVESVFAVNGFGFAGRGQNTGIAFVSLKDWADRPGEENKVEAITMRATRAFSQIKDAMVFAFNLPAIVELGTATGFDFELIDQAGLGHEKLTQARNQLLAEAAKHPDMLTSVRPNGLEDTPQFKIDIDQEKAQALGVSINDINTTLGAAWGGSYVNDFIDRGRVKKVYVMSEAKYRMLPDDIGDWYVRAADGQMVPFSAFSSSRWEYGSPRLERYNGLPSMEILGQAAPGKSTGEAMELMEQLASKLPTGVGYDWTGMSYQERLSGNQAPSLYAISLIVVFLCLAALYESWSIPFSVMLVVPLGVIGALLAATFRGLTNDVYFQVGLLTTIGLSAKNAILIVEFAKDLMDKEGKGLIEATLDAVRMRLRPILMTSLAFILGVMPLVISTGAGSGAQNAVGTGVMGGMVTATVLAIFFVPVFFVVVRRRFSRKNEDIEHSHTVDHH
- assay_protocol: Inhibition of AcrB in wild-type drug-resistant Escherichia coli […] assessed as potentiation of erythromycin-induced antimicrobial activity by measuring erythromycin MIC at 32 ug/ml by checkerboard titration method (reference value: 64 ug/ml)
outcome_measure: MIC (µg/mL)

smiles	unit_tag	measured_number
COc1cccc2cc3c(cc12)C(=O)N(C(C)C)C3=O	µg/mL	32
COc1ccc(CN2C(=O)c3cc4cccc(OC)c4cc3C2=O)cc1	µg/mL	32
COc1cccc2cc3c(cc12)C(=O)N(C)C3=O	µg/mL	64
COc1cccc2cc3c(cc12)C(=O)N(c1ccccc1Cl)C3=O	µg/mL	64
CCCCCN1C(=O)c2cc3cccc(OC)c3cc2C1=O	µg/mL	32
COc1cccc2cc3c(cc12)C(=O)N(Cc1ccccc1)C3=O	µg/mL	32
CCCCCCN1C(=O)c2cc3cccc(OC)c3cc2C1=O	µg/mL	32
COc1ccccc1CN1C(=O)c2cc3cccc(OC)c3cc2C1=O	µg/mL	64
COc1cccc2cc3c(cc12)C(=O)N(C1CCCC1)C3=O	µg/mL	32
COc1cccc2cc3c(cc12)C(=O)N(Cc1ccccc1Cl)C3=O	µg/mL	64
COc1cccc2cc3c(cc12)C(=O)N(C(C)(C)C)C3=O	µg/mL	64
CCc1ccccc1N1C(=O)c2cc3cccc(OC)c3cc2C1=O	µg/mL	64
